Documented Payload LD50 across a set of compounds
System: PC3 cells
procedure-details: Cell viability, EPHA2-expressing PC3
Type: cell-based
recorded-conditions: corresponding payload alone

{"compound": "CC[C@H](O)[C@@H](C)[C@H]1O[C@@H]1C[C@@](C)(O)/C=C/C=C(\\C)[C@H]1OC(=O)C[C@H](O)CC[C@@](C)(OC)[C@@H](OC(=O)N2CCN(C)CC2)/C=C/[C@@H]1C [D2]", "Payload LD50": ">400 nM"}
{"compound": "CC(=O)N1CCC(n2nnc3c(F)cc(/C=C(\\C)[C@H]4OC(=O)C[C@H](O)CC[C@H](C)[C@@H](OC(=O)N5CCNCC5)/C=C/[C@@H]4C)cc32)CC1 [D14]", "Payload LD50": ">400 nM"}
{"compound": "CC[C@H](O)[C@@H](C)[C@H]1O[C@@H]1C[C@@](C)(O)/C=C/C=C(\\C)[C@H]1OC(=O)C[C@H](O)CC[C@@](C)(OC(=O)N2CCNCC2)[C@@H](OC(C)=O)/C=C/[C@@H]1C [D8]", "Payload LD50": "177.783 nM"}
